For each record, write down the corresponding CD50.
system: MT-4 cells; experiment: cytotoxicity: viability of mock-infected MT-4 host cells (MTT method); type: cell-based; set-up: unit not given here; settings: mock-infected MT-4 cells, marker d (undefined, shared with AZT^d)
Numbers only.

Please state, for each entry, its recorded CD50.
1. CCc1c(C(=O)c2cc(C)cc(C)c2)n(CCC2=CCCC2)c(=O)[nH]c1=O
2. CCc1c(C(=O)c2cc(C)cc(C)c2)n(CCC2CC=CC2)c(=O)[nH]c1=O
3. Cc1cc(C)cc(C(=O)c2c(C(C)C)c(=O)[nH]c(=O)n2CCC2CC=CC2)c1

[28.58, 10.30, 9.23]

Return CD50 (reported value) for this molecule: Cc1cn([C@H]2C[C@H](N=[N+]=[N-])[C@@H](CO)O2)c(=O)[nH]c1=O [AZT, reference compound]
2.75

---

test system: MT-4 cells; test: cytotoxicity: viability of mock-infected MT-4 host cells (MTT method); type: cell-based; design: unit not given here; conditions: mock-infected MT-4 cells, marker c (undefined, shared with AZT^c)
value type: CD50
One number for each entry.

# example entries with known answers
> print(dat)
                                   compound  observed.value
1  CCc1c(Oc2cc(C)cc(C)c2)n(CC2CC2(CO)CO)c(=O)[nH]c1=O (stereo not shown)          111.79
2  CC(C)c1c(Sc2ccccc2)n(CC2CC2(CO)CO)c(=O)[nH]c1=O (stereo not shown)          104.12
3  CCc1c(Sc2cc(C)cc(C)c2)n(CC2CC2(CO)CO)c(=O)[nH]c1=O (stereo not shown)           21.56
4  Cc1cc(C)cc(Oc2c(C(C)C)c(=O)[nH]c(=O)n2CC2CC2(CO)CO)c1 (stereo not shown)            7.69
5  CCc1c(Sc2ccccc2)n(CC2CC2(CO)CO)c(=O)[nH]c1=O (stereo not shown)           96.95

Respectfully, I request CD50 for each entry included below.
1. Cc1cc(C)cc(C(=O)c2c(C(C)C)c(=O)[nH]c(=O)n2CC2CC2(CO)CO)c1 (stereo not shown)
2. Cc1cc(C)cc(Sc2c(C(C)C)c(=O)[nH]c(=O)n2CC2CC2(CO)CO)c1 (stereo not shown)

1. 131.71
2. 13.39

Below are some compounds; for each one, tell me its CD50.
1. CCc1c(C(=O)c2cc(C)cc(C)c2)n(CC2CC=CC2)c(=O)[nH]c1=O
2. CCc1c(C(=O)c2cc(C)cc(C)c2)n(CC2CC2(CO)CO)c(=O)[nH]c1=O (stereo not shown)
3. Cc1cn([C@H]2C[C@H](N=[N+]=[N-])[C@@H](CO)O2)c(=O)[nH]c1=O [AZT, reference compound]

1: 1.52; 2: 128.95; 3: 0.057
